Test: Stability in human liver microsomes assessed as compound remaining at 1 uM in presence of NADPH after 30 mins by LC-MS/MS analysis
Assay type: ADME, microsome
Conditions: read-out: Stability
quantity: remaining at 0.5 h, 1 µM (%)

P: CCOC(=O)C1=C(Nc2ccc(F)cc2)O/C(=C\c2c[nH]c3ncccc23)C1=O
Q: CCOC(=O)C1=C(Nc2ccccc2)O/C(=C\c2c[nH]c3ncccc23)C1=O
R: CCOC(=O)C1=C(Nc2ccc(OC)cc2)O/C(=C\c2c[nH]c3ncccc23)C1=O
Sort key: remaining at 0.5 h, 1 µM. Order: high to low. Scope: items listed above. List the labels according to the requested ordering.
P, R, Q
